Test system: Escherichia coli TOP10
Protocol Description: shrunken log2 fold change of peptide-encoding DNA abundance (4.5 h post-induction vs induction); higher = less antimicrobial activity (less host growth inhibition)
Measurement Parameters: time post-induction: 4.5 h; library: site-saturation at positions 5, 18, 19, 20
Label Met when shrunken log2 fold change is at or above -0.02; anything below gets Not met.

>>> qualitative_label("RRIRVRPPRLPRPRPRPSANPRP")
"Met"
>>> qualitative_label("RRIRNRPPRLPRPRPRPFYVPRP")
"Not met"
>>> qualitative_label("RRIRLRPPRLPRPRPRPAWIPRP")
"Met"
>>> qualitative_label("RRIRFRPPRLPRPRPRPWIWPRP")
"Met"
>>> qualitative_label("RRIRWRPPRLPRPRPRPSNLPRP")
"Not met"
>>> qualitative_label("RRIRHRPPRLPRPRPRPSKWPRP")
"Not met"
>>> qualitative_label("RRIRGRPPRLPRPRPRPCVFPRP")
"Met"
>>> qualitative_label("RRIRSRPPRLPRPRPRPLIEPRP")
"Not met"
>>> qualitative_label("RRIRARPPRLPRPRPRPFYEPRP")
"Not met"
>>> qualitative_label("RRIRGRPPRLPRPRPRPLHCPRP")
"Met"
>>> qualitative_label("RRIRIRPPRLPRPRPRPQLEPRP")
"Met"
>>> qualitative_label("RRIRPRPPRLPRPRPRPCVQPRP")
"Met"
>>> qualitative_label("RRIRMRPPRLPRPRPRPQKHPRP")
"Met"
>>> qualitative_label("RRIRVRPPRLPRPRPRPGTMPRP")
"Not met"
>>> qualitative_label("RRIRARPPRLPRPRPRPPEMPRP")
"Met"
>>> qualitative_label("RRIRTRPPRLPRPRPRPSGCPRP")
"Not met"
>>> qualitative_label("RRIRERPPRLPRPRPRPVEMPRP")
"Met"
>>> qualitative_label("RRIRGRPPRLPRPRPRPWVLPRP")
"Met"
>>> qualitative_label("RRIRLRPPRLPRPRPRPYSGPRP")
"Not met"
>>> qualitative_label("RRIRARPPRLPRPRPRPRVYPRP")
"Met"
>>> qualitative_label("RRIRGRPPRLPRPRPRPSDEPRP")
"Met"
>>> qualitative_label("RRIRQRPPRLPRPRPRPIGCPRP")
"Met"
>>> qualitative_label("RRIRVRPPRLPRPRPRPDRPPRP")
"Not met"
>>> qualitative_label("RRIRWRPPRLPRPRPRPKPQPRP")
"Met"
>>> qualitative_label("RRIRERPPRLPRPRPRPCMWPRP")
"Not met"
>>> qualitative_label("RRIRLRPPRLPRPRPRPKPCPRP")
"Not met"
>>> qualitative_label("RRIRFRPPRLPRPRPRPVGNPRP")
"Met"
>>> qualitative_label("RRIRMRPPRLPRPRPRPPYLPRP")
"Met"
>>> qualitative_label("RRIRVRPPRLPRPRPRPRIAPRP")
"Met"
>>> qualitative_label("RRIRARPPRLPRPRPRPFCHPRP")
"Not met"
>>> qualitative_label("RRIRDRPPRLPRPRPRPKCHPRP")
"Met"
>>> qualitative_label("RRIRARPPRLPRPRPRPVKRPRP")
"Met"
>>> qualitative_label("RRIRGRPPRLPRPRPRPEPCPRP")
"Met"
>>> qualitative_label("RRIRVRPPRLPRPRPRPLAHPRP")
"Met"
>>> qualitative_label("RRIRKRPPRLPRPRPRPPMSPRP")
"Met"
>>> qualitative_label("RRIRKRPPRLPRPRPRPFLRPRP")
"Met"
>>> qualitative_label("RRIRLRPPRLPRPRPRPWMYPRP")
"Not met"
>>> qualitative_label("RRIRYRPPRLPRPRPRPYKKPRP")
"Met"
>>> qualitative_label("RRIRERPPRLPRPRPRPAYLPRP")
"Not met"
>>> qualitative_label("RRIRARPPRLPRPRPRPVMAPRP")
"Met"
>>> qualitative_label("RRIRYRPPRLPRPRPRPPFPPRP")
"Not met"
>>> qualitative_label("RRIRLRPPRLPRPRPRPNNTPRP")
"Not met"
>>> qualitative_label("RRIRIRPPRLPRPRPRPDQPPRP")
"Met"
>>> qualitative_label("RRIRIRPPRLPRPRPRPLRTPRP")
"Not met"
>>> qualitative_label("RRIRGRPPRLPRPRPRPGLKPRP")
"Met"
>>> qualitative_label("RRIRLRPPRLPRPRPRPWNPPRP")
"Not met"
>>> qualitative_label("RRIRERPPRLPRPRPRPTTAPRP")
"Met"
>>> qualitative_label("RRIRFRPPRLPRPRPRPLNSPRP")
"Not met"
>>> qualitative_label("RRIRTRPPRLPRPRPRPCLTPRP")
"Not met"
>>> qualitative_label("RRIRKRPPRLPRPRPRPMSAPRP")
"Met"
>>> qualitative_label("RRIRRRPPRLPRPRPRPYLHPRP")
"Not met"
>>> qualitative_label("RRIRKRPPRLPRPRPRPLCAPRP")
"Met"
>>> qualitative_label("RRIRGRPPRLPRPRPRPSMRPRP")
"Met"
>>> qualitative_label("RRIRQRPPRLPRPRPRPLEGPRP")
"Not met"
>>> qualitative_label("RRIRIRPPRLPRPRPRPCRRPRP")
"Not met"
>>> qualitative_label("RRIRNRPPRLPRPRPRPYENPRP")
"Not met"
>>> qualitative_label("RRIRIRPPRLPRPRPRPYVYPRP")
"Not met"
>>> qualitative_label("RRIRHRPPRLPRPRPRPFGCPRP")
"Met"
>>> qualitative_label("RRIRNRPPRLPRPRPRPQVYPRP")
"Not met"
>>> qualitative_label("RRIRRRPPRLPRPRPRPVVWPRP")
"Met"
>>> qualitative_label("RRIRDRPPRLPRPRPRPAPFPRP")
"Met"
>>> qualitative_label("RRIRGRPPRLPRPRPRPKKPPRP")
"Met"
>>> qualitative_label("RRIRNRPPRLPRPRPRPLCAPRP")
"Met"

----------
Tested on: Escherichia coli TOP10
Protocol Description: shrunken log2 fold change of peptide-encoding DNA abundance (4.5 h post-induction vs induction); higher = less antimicrobial activity (less host growth inhibition)
Measurement Parameters: time post-induction: 4.5 h; library: site-saturation at positions 5, 18, 19, 20
Listing of entries alongside the reported shrunken log2 fold change.
Experimental Endpoint: shrunken log2 fold change

>>> endpoint_value("RRIRYRPPRLPRPRPRPVHRPRP")
-0.462
>>> endpoint_value("RRIRCRPPRLPRPRPRPNPEPRP")
0.448
>>> endpoint_value("RRIRDRPPRLPRPRPRPHHWPRP")
0.172
>>> endpoint_value("RRIRGRPPRLPRPRPRPFWLPRP")
0.299
>>> endpoint_value("RRIRCRPPRLPRPRPRPNKGPRP")
-0.302
>>> endpoint_value("RRIRIRPPRLPRPRPRPAQCPRP")
0.211
>>> endpoint_value("RRIRERPPRLPRPRPRPNRHPRP")
-0.516
>>> endpoint_value("RRIRLRPPRLPRPRPRPCTSPRP")
-0.114
>>> endpoint_value("RRIRPRPPRLPRPRPRPISCPRP")
-0.0606
>>> endpoint_value("RRIRGRPPRLPRPRPRPRLLPRP")
0.908
>>> endpoint_value("RRIRERPPRLPRPRPRPWNYPRP")
-0.00131
>>> endpoint_value("RRIRQRPPRLPRPRPRPIITPRP")
-1.01
>>> endpoint_value("RRIRHRPPRLPRPRPRPSRGPRP")
-0.0716
>>> endpoint_value("RRIRNRPPRLPRPRPRPACKPRP")
0.169
>>> endpoint_value("RRIRARPPRLPRPRPRPPFEPRP")
0.504

----------
System: Escherichia coli TOP10;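 also: peptides expressed intracellularly from a pBAD plasmid library in pooled LB shake-flask culture, induced with 0.3% L-arabinose, DNA abundance read by NGS, three biological replicates, DESeq2 with apeglm shrinkage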
Protocol Description: shrunken log2 fold change of peptide-encoding DNA abundance (4.5 h post-induction vs induction); higher = less antimicrobial activity (less host growth inhibition)
Measurement Parameters: time post-induction: 4.5 h; library: site-saturation at positions 5, 18, 19, 20
Label y when shrunken log2 fold change is at or above -0.02; anything below gets n.

>>> qualitative_label("RRIRVRPPRLPRPRPRPGDDPRP")
"y"
>>> qualitative_label("RRIRARPPRLPRPRPRPRKAPRP")
"y"
>>> qualitative_label("RRIRIRPPRLPRPRPRPDWRPRP")
"y"
>>> qualitative_label("RRIRQRPPRLPRPRPRPTLRPRP")
"n"
>>> qualitative_label("RRIRARPPRLPRPRPRPYDHPRP")
"n"
>>> qualitative_label("RRIRNRPPRLPRPRPRPCNSPRP")
"n"
>>> qualitative_label("RRIRCRPPRLPRPRPRPHVRPRP")
"n"
>>> qualitative_label("RRIRLRPPRLPRPRPRPCTRPRP")
"n"
>>> qualitative_label("RRIRVRPPRLPRPRPRPKFGPRP")
"y"
>>> qualitative_label("RRIRLRPPRLPRPRPRPWIKPRP")
"n"
>>> qualitative_label("RRIRKRPPRLPRPRPRPGKAPRP")
"n"
>>> qualitative_label("RRIRIRPPRLPRPRPRPLFYPRP")
"n"
>>> qualitative_label("RRIRLRPPRLPRPRPRPIYGPRP")
"y"
>>> qualitative_label("RRIRHRPPRLPRPRPRPAQQPRP")
"n"
>>> qualitative_label("RRIRTRPPRLPRPRPRPGHWPRP")
"y"
>>> qualitative_label("RRIRKRPPRLPRPRPRPWWQPRP")
"y"
>>> qualitative_label("RRIRKRPPRLPRPRPRPAATPRP")
"y"
>>> qualitative_label("RRIRLRPPRLPRPRPRPQQMPRP")
"n"
>>> qualitative_label("RRIRLRPPRLPRPRPRPMAAPRP")
"y"
>>> qualitative_label("RRIRDRPPRLPRPRPRPQTSPRP")
"y"
>>> qualitative_label("RRIRVRPPRLPRPRPRPMTVPRP")
"y"
>>> qualitative_label("RRIRQRPPRLPRPRPRPFPYPRP")
"y"
>>> qualitative_label("RRIRYRPPRLPRPRPRPNMVPRP")
"y"
>>> qualitative_label("RRIRFRPPRLPRPRPRPERFPRP")
"n"
>>> qualitative_label("RRIRYRPPRLPRPRPRPCTIPRP")
"n"
>>> qualitative_label("RRIRWRPPRLPRPRPRPNGTPRP")
"y"
>>> qualitative_label("RRIRTRPPRLPRPRPRPMNYPRP")
"n"
>>> qualitative_label("RRIRERPPRLPRPRPRPSWKPRP")
"n"
>>> qualitative_label("RRIRDRPPRLPRPRPRPKSSPRP")
"y"
>>> qualitative_label("RRIRERPPRLPRPRPRPQLMPRP")
"n"
>>> qualitative_label("RRIRNRPPRLPRPRPRPDVLPRP")
"n"
>>> qualitative_label("RRIRRRPPRLPRPRPRPPNPPRP")
"y"
>>> qualitative_label("RRIRSRPPRLPRPRPRPSYMPRP")
"n"
>>> qualitative_label("RRIRDRPPRLPRPRPRPYRYPRP")
"y"
>>> qualitative_label("RRIRSRPPRLPRPRPRPWNRPRP")
"n"
>>> qualitative_label("RRIRMRPPRLPRPRPRPIISPRP")
"n"
>>> qualitative_label("RRIRNRPPRLPRPRPRPAPGPRP")
"y"
>>> qualitative_label("RRIRDRPPRLPRPRPRPPIPPRP")
"n"
>>> qualitative_label("RRIRIRPPRLPRPRPRPDGRPRP")
"n"
>>> qualitative_label("RRIRYRPPRLPRPRPRPKRQPRP")
"y"
>>> qualitative_label("RRIRYRPPRLPRPRPRPNEFPRP")
"n"
>>> qualitative_label("RRIRIRPPRLPRPRPRPAWGPRP")
"y"
>>> qualitative_label("RRIRVRPPRLPRPRPRPGDFPRP")
"y"
>>> qualitative_label("RRIRMRPPRLPRPRPRPIFRPRP")
"y"
>>> qualitative_label("RRIRVRPPRLPRPRPRPRYDPRP")
"n"
>>> qualitative_label("RRIRVRPPRLPRPRPRPECSPRP")
"n"
>>> qualitative_label("RRIRGRPPRLPRPRPRPLACPRP")
"y"
>>> qualitative_label("RRIRIRPPRLPRPRPRPHQDPRP")
"n"
>>> qualitative_label("RRIRARPPRLPRPRPRPEACPRP")
"y"
>>> qualitative_label("RRIRHRPPRLPRPRPRPLWVPRP")
"n"
>>> qualitative_label("RRIRKRPPRLPRPRPRPNNQPRP")
"n"
>>> qualitative_label("RRIRLRPPRLPRPRPRPFMWPRP")
"n"
>>> qualitative_label("RRIRDRPPRLPRPRPRPIQAPRP")
"y"
>>> qualitative_label("RRIRSRPPRLPRPRPRPWNTPRP")
"n"
>>> qualitative_label("RRIRQRPPRLPRPRPRPWNDPRP")
"n"
>>> qualitative_label("RRIRVRPPRLPRPRPRPCLNPRP")
"n"
>>> qualitative_label("RRIRQRPPRLPRPRPRPFVYPRP")
"n"
>>> qualitative_label("RRIRGRPPRLPRPRPRPKIFPRP")
"y"
>>> qualitative_label("RRIRWRPPRLPRPRPRPGHAPRP")
"y"
>>> qualitative_label("RRIRPRPPRLPRPRPRPGCFPRP")
"y"
>>> qualitative_label("RRIRNRPPRLPRPRPRPTIRPRP")
"n"
>>> qualitative_label("RRIRDRPPRLPRPRPRPITFPRP")
"n"
>>> qualitative_label("RRIRRRPPRLPRPRPRPSTCPRP")
"y"

# credit: the supplement of paper PMC9112550
